# assay.remarks: Plasma level after oral administration, LC-MS
# Format: in vivo
# particulars: 500 mg/animal, ddY mice, female, 8 weeks, 500 mg/mouse p.o. single dose, sampled at 10, 60, 180 min, n = 3, read-out: time of peak in the plasma (converted)
No end group written: not given here.
measured.attribute: Tmax (min)
Answer with a number only, understood to be in min.

[in] Form field: reported Tmax of GPPGPAG [GPPGPAG]
[out] 10

----------
# assay.remarks: Cerebral cortex level after oral administration (brain penetration), LC-MS
# Type: in vivo, mouse
# particulars: cerebral cortex, po; 180 min after p.o. administration of 500 mg/mouse, ddY mice, female, LC-MS, mean of n = 3
No end group written: not given here.
measured.attribute: tissue level at time at 3 h
Dear colleague, please send the value followed by its unit.

[in] Entry under review: GPPGPAG [GPPGPAG] . Reported tissue level at time at 3 h?
[out] 2750 ng/g
